# Target under test: JAK1 (Homo sapiens)
# Construct: GST; purchased Life Technologies
# Sequence (P23458 whole entry): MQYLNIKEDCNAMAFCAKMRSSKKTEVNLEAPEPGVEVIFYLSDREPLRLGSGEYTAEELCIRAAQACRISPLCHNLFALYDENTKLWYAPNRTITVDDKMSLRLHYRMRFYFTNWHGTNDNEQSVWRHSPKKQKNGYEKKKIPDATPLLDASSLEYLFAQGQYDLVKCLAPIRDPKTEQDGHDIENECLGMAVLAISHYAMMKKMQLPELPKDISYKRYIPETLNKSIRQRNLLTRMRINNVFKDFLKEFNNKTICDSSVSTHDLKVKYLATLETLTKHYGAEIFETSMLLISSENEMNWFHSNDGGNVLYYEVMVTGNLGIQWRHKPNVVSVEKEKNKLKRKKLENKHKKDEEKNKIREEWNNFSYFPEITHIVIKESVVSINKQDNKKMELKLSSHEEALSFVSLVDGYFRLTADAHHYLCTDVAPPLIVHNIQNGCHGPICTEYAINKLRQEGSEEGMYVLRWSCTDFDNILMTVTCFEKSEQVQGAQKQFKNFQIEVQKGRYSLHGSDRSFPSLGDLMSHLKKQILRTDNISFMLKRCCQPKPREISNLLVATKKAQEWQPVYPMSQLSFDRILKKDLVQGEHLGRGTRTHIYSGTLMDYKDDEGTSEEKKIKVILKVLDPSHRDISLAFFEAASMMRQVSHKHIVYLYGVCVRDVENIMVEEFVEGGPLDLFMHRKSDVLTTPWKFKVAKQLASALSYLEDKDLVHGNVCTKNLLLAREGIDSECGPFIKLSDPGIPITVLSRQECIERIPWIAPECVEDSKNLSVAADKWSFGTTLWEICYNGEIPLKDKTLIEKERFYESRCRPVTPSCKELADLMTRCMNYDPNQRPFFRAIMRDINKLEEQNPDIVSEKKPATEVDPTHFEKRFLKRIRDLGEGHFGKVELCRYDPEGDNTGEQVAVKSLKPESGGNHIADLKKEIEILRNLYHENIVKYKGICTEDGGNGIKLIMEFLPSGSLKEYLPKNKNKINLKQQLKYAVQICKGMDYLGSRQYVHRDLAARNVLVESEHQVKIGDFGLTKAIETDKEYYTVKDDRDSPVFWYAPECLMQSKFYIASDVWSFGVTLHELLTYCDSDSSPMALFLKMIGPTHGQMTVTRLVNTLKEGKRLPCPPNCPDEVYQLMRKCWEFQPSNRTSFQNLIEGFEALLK
# Assay details: Biochemical JAK1 kinase assay (LanthaScreen)
# Condition details: read-out: JAK 1 (pKi) (converted)
Endpoint name: Ki

Examples with their reported Ki follow.
Compound | Measured
CN(C)C/C=C/C(=O)N1CC(C(C)(C)Oc2cc(-c3ccc(O)c(F)c3)cc3[nH]ncc23)C1 [Compound 3-27] | > 100 nM
O=C(/C=C/CN1CCSCC1)N1CC(COc2cc(-c3ccc(O)cc3)cc3[nH]ncc23)C1 [Compound 3-130] | > 100 nM
CN(C)C/C=C/C(=O)N1CCC(Nc2cc(-c3ccc(O)cc3)cc3[nH]ncc23)C(F)(F)C1 (centres unmarked) [Compound 7-5] | 10 to 100 nM
C=CC(=O)N1CC[C@H](Oc2cc(-c3ccc(O)cc3)cc3[nH]nc(C#N)c23)C1 [Compound 1-45] | > 100 nM
CN(C)C/C=C/C(=O)N1CC(COc2cc(-c3ccc(O)c(Cl)c3)cc3[nH]ncc23)C1 [Compound 3-2] | > 100 nM

Enquiry: Param readout= Ki; system= JAK1 (Homo sapiens); entry= C=CC(=O)N1CC(COc2cc(-c3ccc(O)cc3)cc3[nH]nc(C(F)(F)F)c23)C1 [Compound 18-13] ; returns value.
Return: > 100 nM

Enquiry: Param readout= Ki; system= JAK1 (Homo sapiens); entry= CN(C)C/C=C/C(=O)N1CC(COc2cc(-c3c(F)cc(O)cc3F)cc3[nH]ncc23)C1 [Compound 18-2] ; returns value.
Return: 10 to 100 nM

###

# Target under test: JAK3 (Homo sapiens)
# Assay details: Biochemical JAK3 kinase assay (LanthaScreen)
# Design: GST; purchased Life Technologies
# Condition details: read-out: JAK 3 (pKi) (converted)
Recorded Ki values for a group of compounds are listed next.

Examples with their reported Ki follow.
Compound | Measured
C=CC(=O)N1CC(F)(COc2nc(-c3ccc(O)c(Cl)c3)cc3[nH]ncc23)C1 [Compound 3-47] | 0.1 to 1 nM
CN(C)C/C=C/C(=O)N1CC(CN(C)c2cc(-c3ccc(O)cc3)cc3[nH]ncc23)C1 [Compound 11] | 0.1 to 1 nM
C=CC(=O)N1CC[C@H](COc2cc(-c3ccc(O)cc3)cc3[nH]nnc23)C1 [Compound 23] | < 0.1 nM
C=CC(=O)N1C[C@@H](Oc2cc(-c3ccc(O)cc3)cc3[nH]ncc23)C[C@H]1C [Compound 1-11] | < 0.1 nM
C=CC(=O)N1CC2(CC(Oc3cc(-c4ccc(O)cc4)cc4[nH]ncc34)C2)C1 [Compound 12-21] | 0.1 to 1 nM
CN(C/C=C/C(=O)N1CC(COc2cc(-c3ccc(O)cc3)cc3[nH]ncc23)C1)C1CCC1 [Compound 3-117] | 0.1 to 1 nM

Enquiry: Name the recorded Ki for CN(C)C/C=C/C(=O)N1CC[C@H](Oc2cc(-c3ccc(O)c(Cl)c3)cc3[nH]ncc23)C1 [Compound 1-3] .
Return: 0.1 to 1 nM

Enquiry: Name the recorded Ki for C=CC(=O)N1CC[C@H](Oc2cc(-c3ccc(O)cc3)nc3[nH]nc(C)c23)C1 [Compound 1-31] .
Return: < 0.1 nM

###

# Target under test: UniProt:P52333
# Assay details: Biochemical JAK3 kinase assay (LanthaScreen)
# Set-up: GST; purchased Life Technologies
# Condition details: read-out: JAK 3 (pKi) (converted)
Recorded Ki values for a group of compounds are listed next.

Examples with their reported Ki follow.
Compound | Target under test | Ki
Cc1n[nH]c2cc(-c3ccc(O)c(Cl)c3)cc(OCC3CN(C(=O)/C=C/CN(C)C)C3)c12 [Compound 18-1] | UniProt:P52333 | 0.1 to 1 nM
C=CC(=O)N1CC(COc2cc(-c3ccc(O)cc3)cc3[nH]nc(N(C)C)c23)C1 [Compound 18-11] | UniProt:P52333 | 0.1 to 1 nM
O=C(/C=C/CN1CCCC1)N1CC(COc2cc(-c3ccc(O)cc3)cc3[nH]ncc23)C1 [Compound 3-124] | UniProt:P52333 | 0.1 to 1 nM
C=CC(=O)N1CCCC(C(=O)Nc2cc(-c3ccc(O)cc3)cc3[nH]ncc23)C1 (stereo not shown) [Compound 12-40] | UniProt:P52333 | 0.1 to 1 nM

// next item, Ki requested
Enquiry: Name the recorded Ki for C=CC(=O)N1CCC(COc2cc(-c3ccc(O)cc3)cc3[nH]ncc23)CC1 [Compound 12-27] .
Return: < 0.1 nM

###

# Target under test: JAK3 (Homo sapiens)
# Assay details: Biochemical JAK3 kinase assay (LanthaScreen)
# Parameters: GST; purchased Life Technologies
# Condition details: read-out: JAK 3 (pKi) (converted)
Endpoint name: Ki

Examples with their reported Ki follow.
Compound | Endpoint name | Measured
C=CC(=O)N1CC(COc2nc(-c3ccc(O)c(Cl)c3)cc3[nH]ncc23)C1 [Compound 3-35] | Ki | 100 to 1000 pM
C=CC(=O)N1CC(F)(COc2nc(-c3ccc(O)c(F)c3)nc3[nH]ncc23)C1 [Compound 3-93] | Ki | < 100 pM
C=CS(=O)(=O)N1CC[C@H](Oc2cc(-c3ccc(O)cc3)cc3[nH]ncc23)C1 [Compound 18] | Ki | 100 to 1000 pM

Enquiry: Name the recorded Ki for CN(C)C/C=C/C(=O)N1CCSC[C@@H]1C(=O)Nc1cc(-c2ccc(O)cc2)cc2[nH]ncc12 [Compound 12-65] .
Return: 100 to 1000 pM

Enquiry: Name the recorded Ki for COC1(COc2cc(-c3ccc(O)c(F)c3)cc3[nH]ncc23)CN(C(=O)/C=C/CN(C)C)C1 [Compound 3-74] .
Return: < 100 pM

Enquiry: Name the recorded Ki for C=CC(=O)N1CC[C@H]1COc1cc(-c2ccc(O)cc2)cc2[nH]ncc12 [Compound 12-25] .
Return: 100 to 1000 pM

Enquiry: Name the recorded Ki for C=CC(=O)N1CCC[C@@H](C(=O)Nc2cc(-c3ccc(O)cc3)cc3[nH]ncc23)[C@H]1C [Compound 12-57] .
Return: 100 to 1000 pM

Enquiry: Name the recorded Ki for C=CC(=O)N1CCC(Cc2cc(-c3ccc(O)cc3)cc3[nH]ncc23)CC1 [Compound 14] .
Return: 100 to 1000 pM

Enquiry: Name the recorded Ki for C=CC(=O)N1C[C@H](C(=O)Nc2cc(-c3ccc(O)cc3)cc3[nH]ncc23)OC(C)(C)C1 [Compound 12-62] .
Return: < 100 pM

Enquiry: Name the recorded Ki for C=CC(=O)N1CC[C@H](Oc2nc(-c3ccc(O)cc3)nc3[nH]nc(C(F)F)c23)C1 [Compound 1-25] .
Return: 100 to 1000 pM

###

Recorded Ki values for a group of molecules are listed next.
# Target under test: JAK3 (Homo sapiens, UniProt P52333)
# Sequence (P52333 1-1124): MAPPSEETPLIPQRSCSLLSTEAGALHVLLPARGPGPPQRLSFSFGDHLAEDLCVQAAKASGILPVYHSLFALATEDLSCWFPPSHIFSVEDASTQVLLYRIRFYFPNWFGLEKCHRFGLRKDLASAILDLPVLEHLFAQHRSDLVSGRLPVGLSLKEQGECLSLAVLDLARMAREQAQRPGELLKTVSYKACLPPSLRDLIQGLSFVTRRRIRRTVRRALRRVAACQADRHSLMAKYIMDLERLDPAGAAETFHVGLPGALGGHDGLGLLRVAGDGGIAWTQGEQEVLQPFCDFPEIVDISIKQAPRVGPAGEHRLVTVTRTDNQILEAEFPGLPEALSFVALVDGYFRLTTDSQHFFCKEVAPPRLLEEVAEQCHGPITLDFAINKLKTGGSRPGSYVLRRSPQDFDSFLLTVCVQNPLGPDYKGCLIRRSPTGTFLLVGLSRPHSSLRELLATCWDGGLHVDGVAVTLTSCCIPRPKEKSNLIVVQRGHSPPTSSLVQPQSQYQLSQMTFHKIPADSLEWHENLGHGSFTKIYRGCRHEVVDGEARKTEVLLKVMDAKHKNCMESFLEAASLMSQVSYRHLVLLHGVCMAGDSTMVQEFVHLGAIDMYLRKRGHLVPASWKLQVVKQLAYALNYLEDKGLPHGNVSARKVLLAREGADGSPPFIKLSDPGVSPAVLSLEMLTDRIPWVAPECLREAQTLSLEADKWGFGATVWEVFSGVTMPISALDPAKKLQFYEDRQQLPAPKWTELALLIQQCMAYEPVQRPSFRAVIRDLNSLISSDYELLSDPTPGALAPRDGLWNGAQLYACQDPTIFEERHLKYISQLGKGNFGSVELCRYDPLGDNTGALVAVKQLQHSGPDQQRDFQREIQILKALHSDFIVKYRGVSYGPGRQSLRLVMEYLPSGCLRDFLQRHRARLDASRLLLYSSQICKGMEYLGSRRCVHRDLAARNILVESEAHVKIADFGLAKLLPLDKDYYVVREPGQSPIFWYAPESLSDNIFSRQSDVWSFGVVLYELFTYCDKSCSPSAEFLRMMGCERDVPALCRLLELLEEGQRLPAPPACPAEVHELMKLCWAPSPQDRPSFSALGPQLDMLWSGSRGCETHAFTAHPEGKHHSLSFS
# Assay details: Biochemical JAK3 kinase assay (LanthaScreen)
# Set-up: GST; purchased Life Technologies
# Condition details: read-out: JAK 3 (pKi) (converted)

Molecule | Ki
C=CC(=O)N1CC(COc2nc(-c3ccc(O)c(F)c3)nc3[nH]ncc23)C1 | < 0.1 nM

// next item, Ki requested
Enquiry: Name the recorded Ki for C=CC(=O)N1CCC(Oc2cc(-c3ccc(O)cc3)cc3[nH]ncc23)CC1 .
Return: < 0.1 nM
